# system: Inadl_3, Q8NI35
# Sequence (Q8NI35 359-469): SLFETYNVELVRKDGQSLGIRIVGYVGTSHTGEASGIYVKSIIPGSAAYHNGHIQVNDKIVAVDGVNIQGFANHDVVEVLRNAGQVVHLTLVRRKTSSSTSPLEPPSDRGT
# protocol-details: holdup assay
# Set-up: key: below the threshold = too weak to quantify, mostly under pKd 3.1 to 4
# reported-conditions: plain residues with an end cap or a label only (N-terminal biotin on a linker: ahx)
// pKd lookup, one value per entry
measured-endpoint: pKd

• VNENQKEYFF [CNTNAP4, Q9C0A0] = 3.95
• ADENEQVSAV [RAPGEF6, Q8TEU7] = 3.63
• AKPQPVDSWV [ARVCF, O00192] = 3.86
• KDECVIATEV [DLL1, O00548] = 3.5
• YNSFLSVTTV [PDZRN3, Q9UPQ7] = 3.76
• SAPATLSSRA [PDLIM2, Q96JY6] = 3.48
• HSATSVHTSV [MTMR1, Q13613] = 3.7
• KEYDDELTFF [USH1C, Q9Y6N9] = 3.89

Numbers sourced from paper PMC9482650.
